Target: ATP-dependent translocase ABCB1 (Homo sapiens, UniProt P08183)
Sequence (P08183 whole entry): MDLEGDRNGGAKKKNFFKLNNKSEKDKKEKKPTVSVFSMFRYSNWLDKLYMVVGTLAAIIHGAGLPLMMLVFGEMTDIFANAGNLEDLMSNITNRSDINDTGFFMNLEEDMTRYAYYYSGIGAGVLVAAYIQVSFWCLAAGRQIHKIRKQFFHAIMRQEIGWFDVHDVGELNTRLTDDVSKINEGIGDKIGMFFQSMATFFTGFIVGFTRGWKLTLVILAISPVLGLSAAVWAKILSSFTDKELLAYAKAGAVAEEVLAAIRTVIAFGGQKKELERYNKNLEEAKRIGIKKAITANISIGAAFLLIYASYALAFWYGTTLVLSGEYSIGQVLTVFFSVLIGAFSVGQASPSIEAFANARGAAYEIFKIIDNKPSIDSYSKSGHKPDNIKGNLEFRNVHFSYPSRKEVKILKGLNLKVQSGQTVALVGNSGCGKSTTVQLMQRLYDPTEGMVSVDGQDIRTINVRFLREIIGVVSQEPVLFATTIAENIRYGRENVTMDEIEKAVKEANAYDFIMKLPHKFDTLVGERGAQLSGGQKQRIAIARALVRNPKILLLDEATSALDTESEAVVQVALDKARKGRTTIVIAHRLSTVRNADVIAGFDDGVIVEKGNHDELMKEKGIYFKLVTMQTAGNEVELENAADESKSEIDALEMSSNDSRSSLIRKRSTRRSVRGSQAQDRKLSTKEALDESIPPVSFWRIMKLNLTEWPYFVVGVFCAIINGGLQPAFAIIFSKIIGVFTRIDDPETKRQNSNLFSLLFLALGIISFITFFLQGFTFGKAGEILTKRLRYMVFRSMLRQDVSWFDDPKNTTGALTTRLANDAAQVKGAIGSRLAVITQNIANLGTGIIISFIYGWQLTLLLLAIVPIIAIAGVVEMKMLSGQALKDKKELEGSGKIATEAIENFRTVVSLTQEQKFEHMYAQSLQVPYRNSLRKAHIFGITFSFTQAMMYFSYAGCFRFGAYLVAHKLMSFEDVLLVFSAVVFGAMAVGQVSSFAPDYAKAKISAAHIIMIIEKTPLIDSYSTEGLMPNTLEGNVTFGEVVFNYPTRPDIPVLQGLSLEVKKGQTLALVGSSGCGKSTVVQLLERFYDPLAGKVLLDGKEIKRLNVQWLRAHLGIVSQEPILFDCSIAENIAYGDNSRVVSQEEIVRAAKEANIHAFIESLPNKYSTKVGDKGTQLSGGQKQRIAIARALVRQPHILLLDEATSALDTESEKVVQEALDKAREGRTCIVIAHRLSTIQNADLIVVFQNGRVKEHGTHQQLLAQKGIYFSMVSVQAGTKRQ
Threshold check on EC50: strictly below 500 nM is class 1; on or above 500 nM is class 0.

Decide: EC50 of CCC(=O)N(Cc1ccccc1)C[C@@H](O)COc1ccccc1C(=O)CCc1ccccc1 strictly below 500 nM?
class 0

Decide: EC50 of CC(C)O[C@H](CCc1ccccc1)c1ccccc1OC[C@H](O)CN1CCCCC1 strictly below 500 nM?
class 1

Decide: EC50 of COc1ccc(CCC(=O)c2ccccc2OC[C@H](O)CN2CCN(c3ccccc3C)CC2)cc1 strictly below 500 nM?
class 1

Decide: EC50 of O=C(CCc1cccc2ccccc12)c1ccccc1OC[C@H](O)CN1CCOCC1 strictly below 500 nM?
class 0

Decide: EC50 of CCC(=O)c1ccccc1OC[C@H](O)CN1CCOCC1 strictly below 500 nM?
class 0

This collection of values is drawn from ChEMBL document CHEMBL2449286.
